biological target: AHR (Homo sapiens, UniProt P35869); experiment: In vitro assay 1: antagonism in human cell line (transactivation assay, kynurenic acid prestimulated); settings: Assay 1: AHR-luc Hum Antagonism IC50 [M], 150 μM kynurenic acid, 20 hours, firefly luciferase
Sequence (P35869 11-848): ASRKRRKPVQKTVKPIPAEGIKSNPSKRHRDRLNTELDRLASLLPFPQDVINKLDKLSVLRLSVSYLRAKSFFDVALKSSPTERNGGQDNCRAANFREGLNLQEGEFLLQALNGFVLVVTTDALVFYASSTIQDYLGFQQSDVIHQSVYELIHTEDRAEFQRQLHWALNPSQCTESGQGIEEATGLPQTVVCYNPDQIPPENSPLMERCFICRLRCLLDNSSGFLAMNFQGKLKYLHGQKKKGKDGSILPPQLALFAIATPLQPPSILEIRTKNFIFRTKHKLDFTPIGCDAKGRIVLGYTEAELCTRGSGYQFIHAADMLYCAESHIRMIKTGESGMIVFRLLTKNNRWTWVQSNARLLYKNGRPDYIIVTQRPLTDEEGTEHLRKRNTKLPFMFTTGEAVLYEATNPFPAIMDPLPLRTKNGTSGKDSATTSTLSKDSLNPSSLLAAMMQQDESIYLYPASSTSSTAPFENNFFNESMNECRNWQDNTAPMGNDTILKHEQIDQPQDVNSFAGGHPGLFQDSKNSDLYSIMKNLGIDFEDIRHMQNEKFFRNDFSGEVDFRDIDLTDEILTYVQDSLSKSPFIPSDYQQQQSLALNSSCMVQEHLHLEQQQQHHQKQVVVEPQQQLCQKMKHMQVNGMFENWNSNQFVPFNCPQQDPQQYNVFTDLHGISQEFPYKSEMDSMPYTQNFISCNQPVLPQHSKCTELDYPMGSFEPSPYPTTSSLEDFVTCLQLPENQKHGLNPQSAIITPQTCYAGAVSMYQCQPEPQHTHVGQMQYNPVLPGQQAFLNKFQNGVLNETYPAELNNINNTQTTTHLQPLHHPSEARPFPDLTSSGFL
propertyLabel: IC50 (M)

[
  {
    "compound": "C[C@@H](CO)NC(=O)c1cc(-c2ccc(Cl)c(F)c2)nn(-c2cccc(F)c2)c1=O [Example 286]",
    "propertyLabel": "IC50",
    "testValue": "2.77e-07"
  },
  {
    "compound": "CC(C)[C@@H](CO)NC(=O)c1cc(-c2ccc(Cl)c(Cl)c2)nn(-c2cccc(F)c2)c1=O [Example 301]",
    "propertyLabel": "IC50",
    "testValue": "2.73e-08"
  },
  {
    "compound": "Cc1ccc(-c2cc(C(=O)NC(C)CO)c(=O)n(-c3ccccc3)n2)cc1 (centres unmarked) [Example 73]",
    "propertyLabel": "IC50",
    "testValue": "3.07e-07"
  },
  {
    "compound": "CC(O)C(NC(=O)c1cc(-c2ccc(Cl)cc2)nn(-c2cccc(F)c2)c1=O)C(F)(F)F (single isomer, unassigned) [Example 198]",
    "propertyLabel": "IC50",
    "testValue": "1.34e-08"
  },
  {
    "compound": "O=C(NC(CO)C1CCOC1)c1cc(-c2ccc(OC(F)(F)F)cc2)nn(-c2cccc(F)c2)c1=O (single isomer, unassigned) [Example 177]",
    "propertyLabel": "IC50",
    "testValue": "3.19e-07"
  },
  {
    "compound": "O=C(NC(CO)C1CCOC1)c1cc(-c2ccc(Cl)cc2)nn(-c2cc(Cl)cc(Cl)c2)c1=O (centres unmarked) [Example 310]",
    "propertyLabel": "IC50",
    "testValue": "4.34e-07"
  },
  {
    "compound": "O=C(NCCCO)c1cc(-c2ccc(C(F)(F)F)cc2)nn(-c2cccc(F)c2)c1=O [Example 249]",
    "propertyLabel": "IC50",
    "testValue": "8.84e-08"
  },
  {
    "compound": "COc1ccc(-c2cc(C(=O)NCC(O)C(F)(F)F)c(=O)n(-c3cccc(F)c3)n2)cc1 (centres unmarked) [Example 126]",
    "propertyLabel": "IC50",
    "testValue": "5.13e-08"
  },
  {
    "compound": "CC(CCO)NC(=O)c1cc(-c2ccc(Cl)cc2)nn(-c2cccc(F)c2)c1=O (racemic) [Example 206]",
    "propertyLabel": "IC50",
    "testValue": "6.25e-08"
  },
  {
    "compound": "Cc1ccc(-c2cc(C(=O)N[C@H](CO)C(C)C)c(=O)n(-c3cc(F)cc(F)c3)n2)cc1 [Example 51]",
    "propertyLabel": "IC50",
    "testValue": "4.16e-09"
  },
  {
    "compound": "CC(C)C(O)CNC(=O)c1cc(-c2ccc(Cl)cc2)nn(-c2cccc(F)c2)c1=O (centres unmarked) [Example 28]",
    "propertyLabel": "IC50",
    "testValue": "8.85e-08"
  }
]
